test system: M. tuberculosis H37Rv growth inhibition with meropenem; experiment: dose response, H37Rv, with and without meropenem (AID 434987);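 note: growth over 7 days at 37 °C before Alamar Blue read on day 9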; settings: M. tuberculosis H37Rv growth inhibition; measured here: IC50 without meropenem
Exercise: state measured IC50 for each of the molecules provided.
Give bare numbers, in µM.

1) Cc1onc(-c2ccccc2Cl)c1C(=O)NCc1ccc2c(c1)cc(C)n2C ... 39

Let us examine a further case.
**Query** What does the record list as IC50 for Cc1cccc(-n2nc([N+](=O)[O-])c(=NC3CCN(Cc4ccccc4)CC3)n2O)c1 ?
**Result** 45.8

* * *

system: M. tuberculosis H37Rv growth inhibition with meropenem; assay: dose response, H37Rv, with and without meropenem (AID 434987); details: measured here: IC90 with meropenem;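 note: growth over 7 days at 37 °C before Alamar Blue read on day 9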
Provide the recorded IC90 for the entries that follow.

Here is how some molecules turned out for IC90.
1. CCc1nc2scc(-c3cccs3)c2c(=O)o1 ... > 100 µM
2. COc1ccc(/C=C/C(=O)NCC(=O)N/N=C/c2cc(Br)ccc2OCc2ccccc2)cc1 ... > 100 µM
3. O=C(Nc1ccccc1-c1ccccc1)C12CC3CC(CC(C3)C1)C2 ... > 100 µM
4. COc1ccccc1NC(=O)Nc1nn(C)c2cccc(OC)c12 ... > 100 µM
5. COc1cc(C(=O)N/N=C/c2ccc(OC(=O)c3cccc(C)c3)cc2)ccc1O ... 53.4 µM
6. Cn1c(=O)c(C(=O)COC(=O)c2cc(C3CC3)nc3ccccc23)c(N)n(Cc2ccccc2)c1=O ... > 100 µM

Kindly give each listed record's IC90.
1. c1ccc(-c2cc3ccccc3[nH]2)cc1
2. CCOC(=O)N1CCN(C(=O)CSc2nnc(COc3ccccc3)o2)CC1
3. CCc1ccccc1NC(=O)CNC(=O)c1cc(C2CC2)nn1-c1ccccc1
4. O=C(C1=C[C@@H](c2ccc(Br)cc2)C[C@@H](OCc2ccc(CO)cc2)O1)N1CCN(Cc2ccc3c(c2)OCO3)CC1
5. O=C(Nc1nc2ccccc2[nH]1)c1ccccc1F
6. O=C(Nc1cccc(C(F)(F)F)c1)N1CCC(c2nc(-c3ccc(F)cc3)no2)CC1

**Result**
1: > 100 µM; 2: 18.4 µM; 3: > 100 µM; 4: > 100 µM; 5: > 100 µM; 6: > 100 µM

For every item in the list below, what is its measured IC90?
1. Fc1ccc(NC(=S)NCc2cccs2)cc1
2. CC(=O)NC(c1cc(Cl)c2cccnc2c1O)C1CC1 (stereo not given)
3. CSc1ccc(/C=C/C(=O)Nc2ccccc2)cc1
4. COc1cccc(-n2c([S-])c(C(=O)Nc3ccc(S(=O)(=O)N4CCOCC4)cc3)[n+]3cc(C(N)=O)ccc23)c1
5. COCCNC(=O)c1ccc(NC(=O)C2(c3ccccc3)CCCC2)cc1
6. CN(C)C(=O)c1ccc(-n2nc(C(F)(F)F)c3c2CCCC3)cc1
7. NNC(=O)c1cccc(O)c1
8. COc1ccc(C(=O)NC(=S)NC(C)(C)C)cc1Br

**Result**
1: > 100 µM; 2: > 100 µM; 3: > 100 µM; 4: > 100 µM; 5: > 100 µM; 6: > 100 µM; 7: 73.9 µM; 8: > 100 µM

Batch of 3 molecules: report IC90 for each.
1. CCC(CC)c1nnc(NC(=O)c2cc(-c3ccccc3)nc3ccccc23)s1
2. CCC(=O)Nc1cc(OC)c(NC(=O)c2ccccc2)cc1OC
3. CCc1nnc(NC(=O)c2ccc3nc(CC)c(CC)nc3c2)s1

**Result**
["> 100 µM", "> 100 µM", "> 100 µM"]

Batch request: IC90 for each of the following molecules.
1. CCN(Cc1ccncc1)C(=O)C(CO)c1ccccc1 (stereo not given)
2. COc1ccc(C2(CNC(=O)c3cc([N+](=O)[O-])cc([N+](=O)[O-])c3)CCCC2)cc1OC
3. CCCCCn1c(=O)c(C(=O)NCc2ccncc2)c(O)c2ccccc21
4. O=C(C1=C[C@H](c2ccc(Br)cc2)C[C@H](OCCCCO)O1)N1CCN(Cc2ccc3c(c2)OCO3)CC1

**Result**
> 100 µM
1.61 µM
> 100 µM
> 100 µM
